Tested on: SARS-CoV-2 (USA_WA1/2020)
method: microbe, parasite or virus in culture
Format: cell-based
assay.setup: Severe acute respiratory syndrome coronavirus 2, Vero C1008, SARS-CoV-2 CPE assay, Vero E6 cells; confirmed anti-SARS-CoV-2 compounds; read-out: CPE EC50
Structures can show the parent of a compound that is named as a salt.
Note to self: EC50 under 6 µM means label 1, ties and anything higher get label 0.

Please state whether EC50 is below 6 µM for CC(=O)Oc1ccccc1C(=O)Nc1ncc([N+](=O)[O-])s1 [Nitazoxanide]
label 0

Identify whether the compound CN1CCCN(C(c2ccccc2)c2ccc(Cl)cc2)CC1 (centres unmarked) [Homochlorcyclizine] records EC50 below 6 µM.
label 0

Given CN(C)CCOC(C)(c1ccccc1)c1ccc(Cl)cc1 (centres unmarked) [Chlorphenoxamine] , is recorded EC50 strictly lower than 6 µM?
label 0

Report whether reported EC50 is lower than 6 µM (strictly) for Cn1c(Nc2ccc(C(F)(F)F)cc2)nc2cc(Oc3ccnc(-c4ncc(C(F)(F)F)[nH]4)c3)ccc21 [CHIR-265]
label 1

Field: below-cutoff. Rule: recorded EC50 strictly less than 6 µM. Subject: CCC(=O)c1ccc2c(c1)N(CCCN(C)C)c1ccccc1S2 [Propionylpromazine hydrochloride]
label 0

Decide: EC50 of CC1(C)CC(=O)c2c(C(F)(F)F)nn(-c3ccc(C(N)=O)c(N[C@H]4CC[C@H](OC(=O)CN)CC4)c3)c2C1 [SNX-5422] strictly below 6 µM?
label 1

I'd appreciate it if you could check whether Oc1c(I)cc(Cl)c2cccnc12 [Clioquinol] has EC50 smaller than 6 µM.
label 0

I'd appreciate it if you could check whether O[C@H]1[C@H]2c3cc4c(cc3CN3CCC(=C[C@@H]1O)[C@H]23)OCO4 [Lycorine hydrochloride] has EC50 smaller than 6 µM.
label 1
